Experiment: resazurin metabolic signal in A549 cells – cell-based, resazurin fluorescence, 24 h, PK04 Diversity Set, profiling panel (AID 1171); further: test concentration not given here
Settings: A549 viability, higher = more signal, called active from +8 up or from −8 down
measure.name: z-score
Respond using a number only.

Examples with their reported z-score follow.
COCCOC(=O)N1C(=O)[C@@]2(c3cc(C#Cc4ccc(OC)cc4)ccc31)[C@H](c1ccc(OCCO)cc1)N1[C@H](c3ccccc3)[C@H](c3ccccc3)OC(=O)[C@H]1[C@@H]2C(N)=O; -0.588
N#Cc1ccc(NN2C(C(O)c3ccccc3)C=CC3C(=O)N(c4ccccc4)C(=O)C32)cc1 (stereo not given); -0.331
COCCOC(=O)N1C(=O)[C@@]2(c3cc(C#CCNC(N)=O)ccc31)[C@H](C(=O)N1CCCCCCC1)[C@H]1C(=O)O[C@H](c3ccccc3)[C@H](c3ccccc3)N1[C@@H]2c1ccc(OCCO)cc1; -0.619
CCCNC(=O)[C@@]1(Sc2ccc(C)cc2)CC(=O)N(Cc2ccccc2)[C@@H]1c1ccc(CO)cc1I; 0.198
O=C1O[C@H](c2ccccc2)[C@H](c2ccccc2)N2[C@H]1[C@@H](C(=O)N1CCN(c3ncccn3)CC1)[C@]1(C(=O)Nc3ccc(C#CCCO)cc31)[C@H]2c1ccc(OCCO)cc1; 0.978

Request: Quick one: z-score for COCCCNC(=O)[C@@]1(Cc2ccccc2CN=[N+]=[N-])N=C(c2ccc(OCCCO)cc2)O[C@H]1c1ccccc1N=[N+]=[N-] ?
Response: -1.47

Request: Quick one: z-score for CCOC(=O)C[C@H]1[C@H](OC(=O)c2cc3ccccc3oc2=O)[C@@H](NC(=O)c2ccc3ccccc3n2)c2cc(OCCCO)ccc2N1C(=O)c1ccc2ccccc2n1 ?
Response: -0.82

Request: Quick one: z-score for COc1cc2c(cc1OC)CN(C(=O)[C@@H]1[C@H]3C(=O)O[C@H](c4ccccc4)[C@H](c4ccccc4)N3[C@H](c3ccc(OCCO)cc3)[C@@]13C(=O)Nc1ccc(C#CCCO)cc13)CC2 ?
Response: 0.519

Request: Quick one: z-score for C[C@H]1ON(c2ccccc2)[C@@H](c2ccccc2)[C@@H]1C(=O)N1C(=O)OC[C@@H]1c1ccccc1 ?
Response: 0.535

Request: Quick one: z-score for CN(C)CCCNC(=O)[C@@]1(Cc2ccccc2I)c2ccccc2C(=O)N(Cc2ccccc2Cl)[C@H]1c1ccc(CO)cc1 ?
Response: -6.99

Request: Quick one: z-score for C=CC[C@@]1(C(=O)NCCN2CCOCC2)N=C(c2ccc(OCCCO)cc2)O[C@@H]1c1ccccc1 ?
Response: 1.28

Request: Quick one: z-score for COC(=O)[C@@]1(Cc2ccc(OC)cc2)[C@H]2c3cc(C(=O)N(C)C)n(Cc4cc(F)c(F)c(F)c4)c3C[C@H]2CN1C(=O)c1ccccc1 ?
Response: -1.48

Request: Quick one: z-score for COc1ccccc1CN1C(=O)c2ccccc2[C@](Cc2ccccc2I)(C(=O)NCCN2CCOCC2)[C@@H]1c1ccc(CO)cc1 ?
Response: -1.83

Request: Quick one: z-score for CCCCC(CC)C(O)C1C=CC2C(=O)NC(=O)C2N1Nc1ccccn1 (stereo not given) ?
Response: -0.858

Request: Quick one: z-score for C=CCNC(=O)[C@@H]1[C@H]2C(=O)O[C@H](c3ccccc3)[C@H](c3ccccc3)N2[C@H](c2ccc(O)cc2)[C@@]12C(=O)Nc1ccc(C#CCCO)cc12 ?
Response: 1.01
